Data provenance: ChEMBL document CHEMBL1201862

# Tested on: KM12
# procedure details: NCI tumour cell line growth inhibition, 48 h
The source made the active and inactive calls. Rule as the data show it: active = GI50 up to about 1.1 µM and inactive = higher.
quantity kind: GI50

# example entries with known answers
COc1cc2c(c(OC)c1OC)C(=O)[C@H](O)[C@H]2NC(N)=O ... > 100 µM (inactive)
COc1ccc(-n2c(C)nc3ccc(NC4OC(CO)C(O)C(O)C4O)cc3c2=O)cc1 (stereo unspecified) ... > 100 µM (inactive)

The reported value for CC(=O)O/C=C\OC1CCCC1(c1ccccc1)c1ccccc1 (stereo unspecified) in terms of GI50 is 3.49 µM (inactive)

The compound listed as CC(=O)ON(C(C)=O)c1ccc(-c2nc3ccccc3s2)cc1C has a reported GI50 of 47.4 µM (inactive)

The reported GI50 of the compound COc1cccc(Nc2nc3c([nH]2)c(=O)n(C)c(=O)n3C)c1 was > 10 µM (inactive)

Per the record, CC(C)C1CC(CO)(CNc2nc(N)nc(Cl)c2/C=N\O)C1 (stereo unspecified) has GI50 of 2.03 µM (inactive)

The recorded GI50 for entry CCc1nn(CN2CCN(C)CC2)c(=S)n1/N=C\c1ccc(-c2ccc([N+](=O)[O-])cc2)o1 equals > 100 µM (inactive)

----------
# Test system: BT-549
# procedure details: NCI tumour cell line growth inhibition, 48 h
Active and inactive are the calls of the source. Cut-off read from the data, not from the text of the source: active = GI50 up to about 1.1 µM and inactive = higher.
Give your call using only these classes: t = active, f = inactive

Before answering, review these 5 worked examples.
Cc1c(-c2ccccc2)n(C)c2cn[nH]c(=O)c12 ... f
COc1cc(C2=NNC(=O)c3ccccc3N2c2nc(-c3cccs3)nc3ccc(Br)cc23)cc(OC)c1OC ... f
CO/C=C/C=C(\C#N)C(=O)OC ... f
CN(C)CC1CCC/C(=C\c2ccc(OC(=O)/C=C/c3ccccc3)cc2)C1=O (stereo unspecified) ... f
CN(C)Cc1cc(/N=N/c2ccc(Cl)c(Cl)c2)ccc1O ... f

IN: What is the recorded call for this compound in the test? NCCC(N)C(=O)O (stereo unspecified)
OUT: f

IN: Record lookup: outcome of this test for O=C(NNC(=S)NCc1ccccc1)C12CC3CC(CC(C3)C1)C2 ?
OUT: f

IN: Could you please tell me the result logged for CCOC(=O)/C(C#N)=C/c1ccnc2ccccc12 in this assay?
OUT: f

IN: Could you please tell me the result logged for CCCCOC(=O)C(=O)C(CCC(=O)c1ccc(C)cc1)C(=O)C=C(C)C (stereo unspecified) in this assay?
OUT: f

----------
# Tested on: SF-295
# procedure details: NCI tumour cell line growth inhibition, 48 h
Active and inactive are the calls of the source. Cut-off read from the data, not from the text of the source: active = GI50 up to about 1.1 µM and inactive = higher.
Log the outcome using a class from class 1 for active, class 0 for inactive

For orientation, consider the following solved cases.
c1cncc(CNCc2cccnc2)c1 ... class 0
CN(C)CCSc1nccc(-c2ccc(-c3ccnc(SCCN(C)C)n3)s2)n1 ... class 0
CC(=O)Nc1ccc(-c2nc3ccccc3s2)cc1Cl ... class 0
CSC1(Cc2ccccn2)C(=O)Nc2cccc([N+](=O)[O-])c21 (configuration not stated) ... class 0
COC(=O)[C@@H](C)[C@H]1CC[C@@](C)(CCC2=C(C)CC3C=C(C)CCC3C2(C)C)OO1 (some centres not stated) ... class 0
O=C1NC2(CCCCC2)C2CCCCCC12 (configuration not stated) ... class 0
CO[C@@H]1O[C@H](C(=O)c2ccccc2)[C@H]2OC(C)(C)O[C@@H]12 ... class 0
Cn1c(COC(=O)Nc2ccccc2)c(COC(=O)Nc2ccccc2)c2ccc3cc(Cl)c(Cl)cc3c21 ... class 0

IN: Assay result, entry O=C1OCCC[C@H]2O[C@@H](COCc3ccccc3)C[C@@H]12 — outcome?
OUT: class 0

IN: Per the records of this test, what outcome belongs to COC1C=COC2(C)Oc3c(C)c(O)c4c(c3C2=O)/C(=N/C2CCC(O)OC2C)C=C(NC(=O)/C(C)=C\C(=O)C2CC2C(O)C(C)C(O)C(C)C(OC(C)=O)C1C)C4=O (configuration not stated) ?
OUT: class 0

IN: Recorded test call requested for CCOC(=O)c1c(NC(=O)c2ccccc2)sc2c1CCCC2
OUT: class 0

IN: Test call for this molecule, please: COC(=O)C1CCC(=O)N1CN(C(C)=O)c1cc(OC)ccc1OC (configuration not stated)
OUT: class 0

IN: # fetch the recorded call for CCOc1ccc2c(c1)NC(=O)C(C1OC(c3ccccc3)=CC1=O)S2 (configuration not stated) here
OUT: class 0

IN: How did this test come out for CC1C(NNc2ccccc2)Oc2cc3c(cc2C1c1ccccc1O)OCO3 (configuration not stated) ?
OUT: class 1

IN: Kindly provide the recorded test outcome for the following molecule: c1ccc(COc2cccc3cccnc23)cc1
OUT: class 0

IN: What did the test return for CC(C)(C)OC(=O)/C=C/[C@@H](CCC(=O)/C=C/[C@H](/C=C\CCCC(=O)O)NC1(c2ccccc2)c2ccccc2-c2ccccc21)O[Si](C)(C)C(C)(C)C ?
OUT: class 0

IN: Name the outcome recorded for NS(=O)(=O)c1ccc(N=C2C(=O)Nc3ccccc32)cc1 in the assay.
OUT: class 0

IN: How did this test come out for CC(=O)O[C@H]1C(=O)[C@@]2(C)C(C(OC(=O)c3ccccc3)C3[C@@H](O)C(OC(=O)[C@@H](O)[C@H](NC(=O)c4ccccc4)c4ccc(C(F)(F)F)cc4)C(C)=C1C3(C)C)[C@]1(OC(C)=O)CO[C@@H]1C[C@@H]2O (some centres not stated) ?
OUT: class 0

IN: // outcome(item) with item = O=C(n1c(=O)n(-c2ccc([N+](=O)[O-])cc2)c(=O)n1C(=O)C(Cl)(Cl)Cl)C(Cl)(Cl)Cl
OUT: class 0

IN: Dear all, I need the recorded test outcome for OCC1OC(n2nc(-c3ccccc3)nc2-c2cnccn2)C(O)C1O (configuration not stated) , thank you.
OUT: class 0
